Assay: Cytotoxicity against monkey LLC-MK2 cells after 96 hrs by sulforhodamine B assay
Assay type: cell-based, Macaca mulatta
Conditions: rhesus monkey
log10(CC50 at 96 h) by entry:
Answers are given as log10 of CC50 at 96 h in µM.

Below, 3 molecules whose answers are already recorded.
# molecule, log10(CC50 at 96 h)
data = [
    ("O=C(Cn1ccnc1[N+](=O)[O-])NCc1ccccc1", 2.79),
    ("C=C1CC[C@@H]2[C@](C)(CCC[C@]2(C)C(=O)O)[C@H]1CC/C(C)=C/C(=O)O", 1.75),
    ("C=C1CC[C@@H]2C(C)(C)[C@@H](O)CC[C@@]2(C)[C@@H]1CC/C(C)=C/C(=O)O", 1.49),
]

// log10(CC50 at 96 h) lookup, key: C=C1CC[C@@H]2C(C)(C)CCC[C@@]2(C)[C@@H]1CC/C(C)=C/C(=O)OC [METHYL COPALATE]
1.84

Lookup `C=C1C[C@@]23CC[C@H]4[C@@](C)(CCC[C@@]4(C)C(=O)O)[C@@H]2CC[C@@H]1C3`
1.88

----------
System: Trypanosoma cruzi
Assay: Antitrypanosomal activity against Trypanosoma cruzi Y epimastigotes assessed as gated cells in lower left quadrant at 400 uM after 3 hrs by propidium iodide staining-based flow cytometric analysis (reference value: 89.35%)
Format: functional
measurement.kind: Activity (%)
Quick reminder: number only, in %, skip the unit.

# compound, unit.of.measurement, Activity
data = [
    ("C=C1CC[C@@H]2C(C)(C)CCC[C@@]2(C)[C@@H]1CC/C(C)=C/C(=O)OC [METHYL COPALATE]", "%", 85.91),
    ("C=C1C[C@@]23CC[C@H]4[C@@](C)(CCC[C@@]4(C)C(=O)O)[C@@H]2CC[C@@H]1C3", "%", 22.65),
]

Fill in the recorded Activity for this compound, with Trypanosoma cruzi as test system: `C=C1CC[C@@H]2[C@](C)(CCC[C@]2(C)C(=O)O)[C@H]1CC/C(C)=C/C(=O)O`
14.2

Further, for `C=C1CC[C@@H]2C(C)(C)[C@@H](O)CC[C@@]2(C)[C@@H]1CC/C(C)=C/C(=O)O` ?
2.56

Repeat for the following compound: `C=C1CC[C@@H]2[C@](C)(CCC[C@@]2(C)C(=O)O)[C@H]1CC[C@H](C)CC(=O)O`
91.66

Same for `C=C1CC/C=C(\C)CC[C@@H]2[C@@H]1CC2(C)C`
9.53

Then `C=C1CC[C@@H]2[C@](C)(CCC[C@@]2(C)C(=O)O)[C@H]1CCc1ccoc1` ?
26.71

Follow-up item: `C=C1CC[C@@H]2C(C)(C)CCC[C@@]2(C)[C@@H]1CC/C(C)=C/C(=O)O`
5.17

----------
Assay: Cytotoxicity against monkey LLC-MK2 cells after 96 hrs by sulforhodamine B assay
Type: cell-based, Macaca mulatta
Details: rhesus monkey
Listed below: CC50 at 96 h values for each entry.
Please state the figure in µM; there is no need to write the unit.

# compound, quantitative.result
measured = [
    ("C=C1CC[C@@H]2[C@](C)(CCC[C@@]2(C)C(=O)O)[C@H]1CC[C@H](C)CC(=O)O [PINIFOLIC ACID]", 252),
]

Find the recorded CC50 at 96 h belonging to C=C1CC[C@@H]2[C@](C)(CCC[C@@]2(C)C(=O)O)[C@H]1CCc1ccoc1 [POLYALTIC ACID] and report it.
60.1

What do you have for C=C1CC[C@@H]2C(C)(C)CCC[C@@]2(C)[C@@H]1CC/C(C)=C/C(=O)O [COPALIC ACID] ?
39.4

Same again, this time with C=C1CC/C=C(\C)CC[C@@H]2[C@@H]1CC2(C)C [BETA-CARYOPHYLLENE]
1720

----------
Readings of Activity for the listed molecules
Test system: Trypanosoma cruzi
Test: Antitrypanosomal activity against Trypanosoma cruzi Y epimastigotes assessed as gated cells in upper right quadrant at 400 uM after 3 hrs by propidium iodide staining-based flow cytometric analysis (reference value: 1.40%)
Assay type: functional
Return type: number; implicit unit %.

Here are 3 molecules together with their reported answers.
# input.smiles, quantitative.result
records = [
    ("C=C1CC[C@@H]2C(C)(C)CCC[C@@]2(C)[C@@H]1CC/C(C)=C/C(=O)O", 50.54),
    ("C=C1CC[C@@H]2[C@](C)(CCC[C@@]2(C)C(=O)O)[C@H]1CCc1ccoc1", 29.09),
    ("C=C1CC/C=C(\\C)CC[C@@H]2[C@@H]1CC2(C)C", 11.4),
]

GET /values?readout=Activity&item= `C=C1CC[C@@H]2[C@](C)(CCC[C@@]2(C)C(=O)O)[C@H]1CC[C@H](C)CC(=O)O`
0.71

----------
Experiment: Selectivity ratio of CC50 for monkey LLC-MK2 cells to IC50 for Trypanosoma cruzi Y amastigotes
Assay type: ADME, cell-based
Details: LLC-MK2 cells versus Trypanosoma cruzi Y amastigotes, read-out: Ratio CC50/IC50
Please note: MET applies when selectivity ratio is 20 or greater, and NOT MET applies otherwise.

# molecule, qualitative.label
records = [
    ("C=C1CC/C=C(\\C)CC[C@@H]2[C@@H]1CC2(C)C", "MET"),
]

Does `C=C1CC[C@@H]2[C@](C)(CCC[C@]2(C)C(=O)O)[C@H]1CC/C(C)=C/C(=O)O` have a reported selectivity ratio of at least 20?
NOT MET

----------
Test: Toxicity in human RBC assessed as hemolysis at 1552 uM after 3 hrs
Format: cell-based, Erythrocyte
Details: red blood cells, read-out: Activity
measurement.kind: hemolysis at 3 h, 1552 µM (%)
The reply should contain only the number, in %.

Requested read-out: hemolysis at 3 h, 1552 µM. Entry: `C=C1CC[C@@H]2[C@](C)(CCC[C@@]2(C)C(=O)O)[C@H]1CC[C@H](C)CC(=O)O`
8

----------
Test system: Trypanosoma cruzi
Assay: Antitrypanosomal activity against Trypanosoma cruzi Y epimastigotes assessed as gated cells in upper right quadrant at 400 uM after 3 hrs by rhodamine 123 staining-based flow cytometric analysis (reference value: 94.94%)
Assay type: functional
measurement.kind: Activity (%)
Number only, in %; omit the unit.

Record excerpt, results attached:
# compound, experimental.system, measurement.kind, unit.of.measurement, quantitative.result
records = [
    ("C=C1CC[C@@H]2[C@](C)(CCC[C@@]2(C)C(=O)O)[C@H]1CC[C@H](C)CC(=O)O [PINIFOLIC ACID]", "Trypanosoma cruzi", "Activity", "%", 97.96),
    ("C=C1CC/C=C(\\C)CC[C@@H]2[C@@H]1CC2(C)C [BETA-CARYOPHYLLENE]", "Trypanosoma cruzi", "Activity", "%", 29.35),
    ("C=C1CC[C@@H]2C(C)(C)CCC[C@@]2(C)[C@@H]1CC/C(C)=C/C(=O)OC [METHYL COPALATE]", "Trypanosoma cruzi", "Activity", "%", 98.49),
]

What measured Activity goes with C=C1CC[C@@H]2[C@](C)(CCC[C@@]2(C)C(=O)O)[C@H]1CCc1ccoc1 [POLYALTIC ACID] ?
95.96

Try C=C1CC[C@@H]2C(C)(C)CCC[C@@]2(C)[C@@H]1CC/C(C)=C/C(=O)O [COPALIC ACID] next.
72.57

Next record, please: C=C1CC[C@@H]2[C@](C)(CCC[C@]2(C)C(=O)O)[C@H]1CC/C(C)=C/C(=O)O [AGATHIC ACID]
84.11

Thanks! And C=C1C[C@@]23CC[C@H]4[C@@](C)(CCC[C@@]4(C)C(=O)O)[C@@H]2CC[C@@H]1C3 [KAURENOIC ACID] ?
91.64

Could you do the same for `C=C1CC[C@@H]2C(C)(C)[C@@H](O)CC[C@@]2(C)[C@@H]1CC/C(C)=C/C(=O)O` , please?
73.66

----------
Test: Toxicity in human RBC assessed as hemolysis after 3 hrs
Format: cell-based, Erythrocyte
Conditions: red blood cells
Recorded log10(HC50 at 3 h), one value per entry.
Log scale reminder: HC50 at 3 h in µM, then log10 taken.

Solved entries (count: 4):
# molecule, quantitative.result
records = [
    ("C=C1C[C@@]23CC[C@H]4[C@@](C)(CCC[C@@]4(C)C(=O)O)[C@@H]2CC[C@@H]1C3", 2.67),
    ("C=C1CC[C@@H]2[C@](C)(CCC[C@]2(C)C(=O)O)[C@H]1CC/C(C)=C/C(=O)O", 3.02),
    ("C=C1CC[C@@H]2C(C)(C)CCC[C@@]2(C)[C@@H]1CC/C(C)=C/C(=O)O", 1.82),
    ("C=C1CC[C@@H]2C(C)(C)[C@@H](O)CC[C@@]2(C)[C@@H]1CC/C(C)=C/C(=O)O", 2.10),
]

# query: log10(HC50 at 3 h) of entry C=C1CC[C@@H]2C(C)(C)CCC[C@@]2(C)[C@@H]1CC/C(C)=C/C(=O)OC [METHYL COPALATE]
3.20

Request: `C[C@@H]1[C@H](O)[C@@H](C)/C=C/C=C/C=C/C=C/C=C/C=C/C=C/[C@H](O[C@@H]2O[C@H](C)[C@@H](O)[C@H](N)[C@@H]2O)C[C@@H]2O[C@](O)(C[C@@H](O)C[C@@H](O)[C@H](O)CC[C@@H](O)C[C@@H](O)CC(=O)O[C@H]1C)C[C@H](O)[C@H]2C(=O)O`
1.71
